# Experimental System: T1, Human IL2Rγ extracellular domain expressed with a C-terminal myc-myc-hexahistidine tag (human)
# T1 construct: also called hIL-2Rg-MMH; hIL-2RG-MMH
# T1 chain: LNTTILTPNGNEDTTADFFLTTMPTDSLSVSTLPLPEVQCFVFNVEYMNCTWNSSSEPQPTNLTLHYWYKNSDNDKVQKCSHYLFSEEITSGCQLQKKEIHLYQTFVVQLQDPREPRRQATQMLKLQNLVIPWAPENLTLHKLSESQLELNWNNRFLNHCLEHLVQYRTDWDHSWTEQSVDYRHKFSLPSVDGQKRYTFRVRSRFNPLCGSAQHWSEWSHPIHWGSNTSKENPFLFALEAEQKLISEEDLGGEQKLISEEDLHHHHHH
# Experiment Description: SPR, captured mAb, 25C, dissociation pH 6.0
# Procedure: The dissociation rate constant (kd) for binding of IL-2Rγ reagents to purified anti-IL2Rγ monoclonal antibodies was determined using a real-time surface plasmon resonance based Biacore 4000 biosensor platform. […] Dissociation rate constants (kd) in two running buffers were determined by fitting the real-time binding sensorgrams to a 1:1 binding model using Scrubber 2.0c curve-fitting software. […]
Measurement Label: 100 nM Ag Bound (RU)
Write the answer as a number in RU, unit excluded.

Binder	100 nM Ag Bound (RU)
H4H13538P (antibody, human IgG4 S228P, kappa, V domains shown, anti-IL2Rgamma mAb expressed with human IgG4 Fc) VH: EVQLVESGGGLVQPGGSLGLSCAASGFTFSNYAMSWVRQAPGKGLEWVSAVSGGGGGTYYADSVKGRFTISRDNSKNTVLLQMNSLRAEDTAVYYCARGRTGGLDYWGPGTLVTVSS VL: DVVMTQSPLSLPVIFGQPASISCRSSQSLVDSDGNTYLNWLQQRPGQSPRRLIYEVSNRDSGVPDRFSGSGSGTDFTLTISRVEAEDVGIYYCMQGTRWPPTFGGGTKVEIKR	93
H4H12858P (antibody, human IgG4 S228P, kappa, V domains shown, anti-IL2Rgamma mAb expressed with human IgG4 Fc; also called REGN9433) VH: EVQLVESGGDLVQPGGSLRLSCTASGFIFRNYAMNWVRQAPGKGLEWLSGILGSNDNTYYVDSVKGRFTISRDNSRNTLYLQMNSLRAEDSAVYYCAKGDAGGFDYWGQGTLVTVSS VL: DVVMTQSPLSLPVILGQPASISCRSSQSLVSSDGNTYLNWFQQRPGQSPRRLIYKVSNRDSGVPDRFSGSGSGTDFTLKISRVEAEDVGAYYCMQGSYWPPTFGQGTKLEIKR	103

Please examine the following record next.
Suppose we examine the binder H4H12899P (antibody, human IgG4 S228P, kappa, V domains shown, anti-IL2Rgamma mAb expressed with human IgG4 Fc) VH: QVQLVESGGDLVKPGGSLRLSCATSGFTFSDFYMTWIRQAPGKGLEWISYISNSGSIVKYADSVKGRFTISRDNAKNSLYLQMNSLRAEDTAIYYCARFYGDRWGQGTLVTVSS VL: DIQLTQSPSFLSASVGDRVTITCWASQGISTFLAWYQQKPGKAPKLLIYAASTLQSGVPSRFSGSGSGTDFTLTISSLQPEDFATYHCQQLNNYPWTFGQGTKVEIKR ; what 100 nM Ag Bound (RU) value has been reported? 96

Numbers sourced from patent US20200247894A1.
